# SYSTEM NAME: BACE1 enzyme (soluble, truncated BACE enzyme, BACE1deltaTM96His) (Homo sapiens)
# Construct: soluble, truncated BACE enzyme (BACE1deltaTM96His); His; made in house
# Sequence (P56817 46-457): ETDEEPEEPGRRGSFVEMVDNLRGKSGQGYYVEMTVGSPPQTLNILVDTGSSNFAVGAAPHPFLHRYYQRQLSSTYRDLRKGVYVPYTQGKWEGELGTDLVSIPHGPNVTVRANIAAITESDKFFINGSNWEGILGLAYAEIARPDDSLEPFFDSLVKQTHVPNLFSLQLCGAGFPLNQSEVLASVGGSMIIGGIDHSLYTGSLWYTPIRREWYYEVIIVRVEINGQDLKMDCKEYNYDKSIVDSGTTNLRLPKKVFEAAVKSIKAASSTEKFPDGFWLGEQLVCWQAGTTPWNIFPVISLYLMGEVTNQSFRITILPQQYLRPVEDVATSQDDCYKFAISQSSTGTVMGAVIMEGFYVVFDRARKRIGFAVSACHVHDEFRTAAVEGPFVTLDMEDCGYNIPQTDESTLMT
# EXPERIMENTAL DETAILS: BACE1 Fluorescent Polarization (FP) Assay
# Assay type: biochemical
# CONDITION SET: 8-point curve; geometric mean of 2-4 IC50 determinations unless footnoted (^2: 5-6 determinations; ^4: single determination); read-out: BACE activity, 8-point curve, IC50
Where a name gives a salt, the structure may show the parent alone.
Output Fulfilled for records whose IC50 is lower than 50 nM, Not fulfilled for records at or above 50 nM.

Some solved cases for reference:
{"COMPOUND": "C[C@H]1C[C@@]2(C=CS(=O)(=O)N2c2cccc(F)c2)CCN1Cc1ccc(O)c(C2CCCC2)c1", "SYSTEM NAME": "BACE1 enzyme (soluble, truncated BACE enzyme, BACE1deltaTM96His) (Homo sapiens)", "ASSIGNED CLASS": "Fulfilled"}
{"COMPOUND": "CC(C)Oc1cc(CN2CC[C@]3(C=CS(=O)(=O)N3c3ccc(F)c(F)c3)C[C@@H]2C)ccc1O", "SYSTEM NAME": "BACE1 enzyme (soluble, truncated BACE enzyme, BACE1deltaTM96His) (Homo sapiens)", "ASSIGNED CLASS": "Not fulfilled"}

Switching to the query record.
Query: Lab log: compare recorded IC50 with 50 nM; is it strictly lower for C[C@H]1C[C@@]2(C=CS(=O)(=O)N2c2cccc(F)c2)CCN1Cc1scnc1CC1CC1 [Example 24, hydrochloride salt] ?
Result: Not fulfilled
